Here, each record is paired with measured MIC data.
# Test system: Sporothrix schenckii
# Test summary: Antimicrobial activity against Sporothrix schenckii after 72 hrs by standard microbroth dilution assay
# Assay type: functional

The following compounds have reported results that may help.
{"Compound": "Clc1ccc(CO/N=C(\\Cn2ccnc2)c2ccc(Cl)cc2Cl)c(Cl)c1 [OXICONAZOLE]", "Test target": "Sporothrix schenckii", "MIC": "3.12 µg/mL"}
{"Compound": "OC(Cn1cncn1)(Cn1cncn1)c1ccc(F)cc1F [FLUCONAZOLE]", "Test target": "Sporothrix schenckii", "MIC": "2 µg/mL"}
{"Compound": "Clc1cccc(CO/N=C2/c3ccccc3CCC2Cn2ccnc2)c1 (stereo unspecified)", "Test target": "Sporothrix schenckii", "MIC": "> 50 µg/mL"}
{"Compound": "Fc1cccc2c1CCC(Cn1ccnc1)/C2=N/OCc1ccccc1 (stereo unspecified)", "Test target": "Sporothrix schenckii", "MIC": "> 50 µg/mL"}
{"Compound": "Clc1cccc(CO/N=C2\\c3cccc(Br)c3CCC2Cn2ccnc2)c1 (stereo unspecified)", "Test target": "Sporothrix schenckii", "MIC": "> 50 µg/mL"}

Next compound, MIC to be filled in.
Consider the compound Clc1cccc(CO/N=C2\c3ccccc3CCC2Cn2ccnc2)c1 (stereo unspecified) and give its measured MIC.
> 50 µg/mL

Attribution: ChEMBL document CHEMBL1154454
